Values compiled from patent US9096641B2.

target system: progesterone receptor (Homo sapiens, UniProt P06401)
Construct: host or cells: HEK 293T
Sequence (P06401 679-913 limits assumed): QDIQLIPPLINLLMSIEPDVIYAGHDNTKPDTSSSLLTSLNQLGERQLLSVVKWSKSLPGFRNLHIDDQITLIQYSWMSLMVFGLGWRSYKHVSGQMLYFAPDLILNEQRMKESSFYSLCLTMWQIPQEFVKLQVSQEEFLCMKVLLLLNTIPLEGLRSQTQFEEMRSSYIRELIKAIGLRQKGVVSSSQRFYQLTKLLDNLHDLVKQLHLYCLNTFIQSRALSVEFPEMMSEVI
method notes: Progesterone Antagonist Screen (SelectScreen cell-based nuclear receptor profiling, GeneBLAzer beta-lactamase reporter)
condition set: relative to RU486, which is 100%; progesterone receptor-LBD-UAS-bla HEK 293T cells; activated by control agonist R5020 at EC80
readout: Progesterone Antagonist (%)

A = CC(=O)c1ccc([C@H]2C[C@@]3(C)[C@@H](CC[C@@]3(O)C(F)(F)C(F)(F)F)[C@@H]3CCC4=CC(=O)CCC4=C32)cc1 [ZK 230211, reference compound]
B = C[C@]12C[C@H](c3ccc(-n4ccnc4)cc3)C3=C4CCC(=O)C=C4CC[C@H]3[C@@H]1CC[C@@]2(O)C#CC(F)(F)F [Ib]
[ask] Lab note: check whether A or B shows the higher recorded Progesterone Antagonist (%). I would appreciate it if you answered with the label of your choice.
[reply] A

I = C=CC(F)(F)[C@]1(O)CC[C@H]2[C@@H]3CCC4=CC(=O)CCC4=C3[C@@H](c3ccc(-n4ccnc4)cc3)C[C@@]21C [Id]
II = C[C@]12C[C@H](c3ccc(-n4ccnc4)cc3)C3=C4CCC(=O)C=C4CCC3C1CC[C@@]2(O)/C=C/C(F)(F)F (stereo partly drawn) [Ic]
III = C=C1CCOC12CCC1C3CCC4=CC(=O)CCC4=C3[C@@H](c3ccc(-n4ccnc4)cc3)C[C@@]12C (stereo partly drawn) [Ie]
IV = C[C@]12C[C@H](c3ccc(-n4ccnc4)cc3)C3=C4CCC(=O)C=C4CC[C@H]3[C@@H]1CC[C@@]2(O)C(F)(F)C(F)(F)F [Ia]
[ask] Arrange the 4 molecules by rising Progesterone Antagonist (%), starting with the smallest. Give me the labels in the order the question wants.
[reply] II, I, III, IV
(II: 54%, I: 90%, III: 163%, IV: 267%)

* * *

target system: glucocorticoid receptor (Homo sapiens, UniProt P04150)
Construct: host or cells: HEK 293T
Sequence (P04150 524-758 limits assumed): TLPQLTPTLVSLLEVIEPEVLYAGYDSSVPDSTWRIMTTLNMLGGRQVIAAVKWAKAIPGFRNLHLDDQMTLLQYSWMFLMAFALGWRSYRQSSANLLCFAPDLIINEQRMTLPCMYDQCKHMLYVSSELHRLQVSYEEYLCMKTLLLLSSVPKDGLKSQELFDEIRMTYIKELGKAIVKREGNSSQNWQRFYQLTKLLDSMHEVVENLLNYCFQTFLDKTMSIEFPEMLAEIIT
method notes: Glucocorticoid Antagonist Screen (SelectScreen cell-based nuclear receptor profiling, GeneBLAzer beta-lactamase reporter)
condition set: relative to RU486, which is 100%; glucocorticoid receptor-LBD-UAS-bla HEK 293T cells; activated by control agonist Dexamethasone
Method: Determination of the agonist/antagonist nature of the test compounds was carried out using Invitrogen's SelectScreen™ Cell-based nuclear receptor profiling service which uses the GeneBLAzer® Beta-lactamase reporter technology. […] The UAS is activated by the GAL4 transcription factor DNA binding domain (DBD), which is expressed as a fusion protein with the target receptor ligand binding domain (LBD). […]
readout: Glucocorticoid Antagonist (%)

Known Glucocorticoid Antagonist (%) results, listed for orientation:
C=C1CCOC12CCC1C3CCC4=CC(=O)CCC4=C3[C@@H](c3ccc(-n4ccnc4)cc3)C[C@@]12C (stereo partly drawn): 5
C=CC(F)(F)[C@]1(O)CC[C@H]2[C@@H]3CCC4=CC(=O)CCC4=C3[C@@H](c3ccc(-n4ccnc4)cc3)C[C@@]21C: 13
CC(=O)c1ccc([C@H]2C[C@@]3(C)[C@@H](CC[C@@]3(O)C(F)(F)C(F)(F)F)[C@@H]3CCC4=CC(=O)CCC4=C32)cc1 [ZK 230211, reference compound]: 6
C[C@]12C[C@H](c3ccc(-n4ccnc4)cc3)C3=C4CCC(=O)C=C4CC[C@H]3[C@@H]1CC[C@@]2(O)C#CC(F)(F)F: 83

a = C[C@]12C[C@H](c3ccc(-n4ccnc4)cc3)C3=C4CCC(=O)C=C4CCC3C1CC[C@@]2(O)/C=C/C(F)(F)F (stereo partly drawn)
b = C[C@]12C[C@H](c3ccc(-n4ccnc4)cc3)C3=C4CCC(=O)C=C4CC[C@H]3[C@@H]1CC[C@@]2(O)C(F)(F)C(F)(F)F
[ask] Lab note: check whether a or b shows the higher recorded Glucocorticoid Antagonist (%). I would appreciate it if you answered with the label of your choice.
[reply] a
